These data points were gathered from patent US20200299306A1.

TARGET: p53/MDM2 complex (Homo sapiens, UniProt Q00987)
Construct: Test performed on cell lysate of human glioblastoma (GBM) cells U343MG; endogenous in cells; host or cells: U343MG human glioblastoma cells (lysate)
Sequence (Q00987 whole entry, one chain of several): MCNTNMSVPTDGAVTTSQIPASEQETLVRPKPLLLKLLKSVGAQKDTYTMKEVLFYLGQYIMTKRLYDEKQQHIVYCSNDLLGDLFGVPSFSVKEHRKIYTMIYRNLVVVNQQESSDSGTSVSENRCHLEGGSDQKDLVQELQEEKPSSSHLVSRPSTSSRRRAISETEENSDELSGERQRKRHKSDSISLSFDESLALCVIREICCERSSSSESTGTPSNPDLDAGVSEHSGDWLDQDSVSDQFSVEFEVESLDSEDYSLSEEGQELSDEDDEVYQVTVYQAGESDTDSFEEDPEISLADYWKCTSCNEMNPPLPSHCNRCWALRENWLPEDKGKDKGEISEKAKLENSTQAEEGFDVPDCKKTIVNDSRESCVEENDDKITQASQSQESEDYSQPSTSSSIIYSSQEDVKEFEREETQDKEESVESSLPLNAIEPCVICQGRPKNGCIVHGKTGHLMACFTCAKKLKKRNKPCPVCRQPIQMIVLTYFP
PROCEDURE_SUMMARY: Inhibitory effect on p53/MDM2 complex binding, cell lysate of human glioblastoma U343MG cells
CONDITION_LABEL: cell lysate of human glioblastoma (GBM) cells U343MG
IC50 by entry:

Consider the reported IC50 for these compounds:
COc1ccc(COC(=O)C2N3C(=O)C(NC(=O)COc4ccc5c(c4)S(=O)(=O)CCc4c-5[nH]c5ccc(F)cc45)C3SC2(C)C)cc1 (stereo not shown) [RM43]
228 nM
CC(=O)OCC1=C(C(=O)OC(C)(C)C)N2C(=O)C(NC(=O)COc3ccc4c(c3)C(=O)Cc3c-4[nH]c4ccc(C(F)(F)F)cc34)C2SC1 (stereo not shown) [RM39]
232 nM
CCNC(=O)CO/N=C1/Cc2c([nH]c3ccc(F)cc23)-c2ccc(OCC(=O)NC3C(=O)N4C3SC(C)(C)C4C(=O)OCc3ccc(OC)cc3)cc21 (stereo not shown) [RA29]
100 nM

GET /values?readout=IC50&item= CC(=O)OCC1=C(C(=O)OC(C)(C)C)N2C(=O)C(NC(=O)COc3ccc4c(c3)CCc3c-4[nH]c4ccc(Br)cc34)C2SC1 (stereo not shown) [RM47]
195 nM
